target: Kappa-type opioid receptor (Homo sapiens); experiment: Concentration required to enhance [35S]GTP-gamma-S, binding to human Opioid receptor kappa expressed in CHO cells
Entries and their EC50 values follow.
Could you give me the number in nM? Just the number is fine.

// solved cases for EC50 follow
COMPOUND	EC50 (nM)
CC(=O)O[C@H]1C[C@@H](C(=O)NC(C)C(=O)OCc2ccccc2)[C@]2(C)CC[C@H]3C(=O)O[C@H](c4ccoc4)C[C@]3(C)[C@H]2C1=O (some centres undefined)	46.7
CC(=O)O[C@H]1C[C@@H](C(=O)NC2CC2)[C@]2(C)CC[C@@H]3C(=O)O[C@H](c4ccoc4)C[C@]3(C)[C@H]2C1=O	840
COCOC(=O)[C@@H]1C[C@H](OC(C)=O)C(=O)[C@H]2[C@@]1(C)CC[C@H]1C(=O)O[C@H](c3ccoc3)C[C@]21C	58.2
CC(=O)O[C@H]1C[C@@H](C(=O)NCC(=O)OCc2ccccc2)[C@]2(C)CC[C@H]3C(=O)O[C@H](c4ccoc4)C[C@]3(C)[C@H]2C1=O	227
CC(=O)O[C@H]1C[C@@H](C(=O)N2CCCC2C(=O)OCc2ccccc2)[C@]2(C)CC[C@H]3C(=O)O[C@H](c4ccoc4)C[C@]3(C)[C@H]2C1=O (some centres undefined)	348
CCOC(=O)[C@@H]1C[C@H](OC(C)=O)C(=O)[C@H]2[C@@]1(C)CC[C@H]1C(=O)O[C@H](c3ccoc3)C[C@]21C	94.4
C#CCCCOC(=O)[C@@H]1C[C@H](OC(C)=O)C(=O)[C@H]2[C@@]1(C)CC[C@H]1C(=O)O[C@H](c3ccoc3)C[C@]21C	224
COCOC(=O)[C@@H]1C[C@H](OC(C)=O)C(=O)[C@@H]2[C@@]3(C)C[C@@H](c4ccoc4)OC(=O)[C@H]3CC[C@]21C	191

Turning now to a further compound:
Answer with the recorded EC50 for the compound listed here: CC(=O)O[C@H]1C[C@@H](C(=O)O)[C@]2(C)CC[C@@H]3C(=O)O[C@H](c4ccoc4)C[C@]3(C)[C@H]2C1=O 74.1

====

molecular target: Kappa-type opioid receptor (Homo sapiens, UniProt P41145); test: Percent maximal response in enhanced [35S]GTP-gamma-S, binding to human Opioid receptor kappa expressed in CHO cells relative to U50,488H; type: functional, cell-based
Sequence (P41145 whole entry): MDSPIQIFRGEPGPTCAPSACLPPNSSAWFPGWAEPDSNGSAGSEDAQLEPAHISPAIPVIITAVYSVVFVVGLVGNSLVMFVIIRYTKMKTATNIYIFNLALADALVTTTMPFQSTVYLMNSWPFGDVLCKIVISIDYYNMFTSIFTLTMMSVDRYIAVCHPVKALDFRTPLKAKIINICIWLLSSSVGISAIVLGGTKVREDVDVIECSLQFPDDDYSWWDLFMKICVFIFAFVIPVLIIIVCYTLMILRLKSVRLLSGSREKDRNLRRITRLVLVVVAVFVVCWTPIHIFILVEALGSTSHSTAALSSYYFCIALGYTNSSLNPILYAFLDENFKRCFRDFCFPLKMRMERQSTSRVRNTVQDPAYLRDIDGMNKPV
Here the recorded Efficacy is given for each entry.
I only need the number, in %, no unit after it.

// known answers, use as guide
SMI	TGT	Efficacy [%]
CC(=O)O[C@H]1C[C@@H](C(=O)NCC(=O)OCc2ccccc2)[C@]2(C)CC[C@H]3C(=O)O[C@H](c4ccoc4)C[C@]3(C)[C@H]2C1=O	Kappa-type opioid receptor (Homo sapiens, UniProt P41145)	105
CC(=O)O[C@H]1C[C@@H](C(=O)O)[C@]2(C)CC[C@@H]3C(=O)O[C@H](c4ccoc4)C[C@]3(C)[C@H]2C1=O	Kappa-type opioid receptor (Homo sapiens, UniProt P41145)	94

Lab note: next molecule to report on.
Provide one value: measured Efficacy of CC(=O)O[C@H]1C[C@@H](C(=O)NC2CC2)[C@]2(C)CC[C@@H]3C(=O)O[C@H](c4ccoc4)C[C@]3(C)[C@H]2C1=O 95

====

molecular target: Kappa-type opioid receptor (Homo sapiens, UniProt P41145); test: Percent maximal response in enhanced [35S]GTP-gamma-S, binding to human Opioid receptor kappa expressed in CHO cells relative to U50,488H; type: functional, cell-based
Efficacy overview
// units = %; emit number, no label

Worked set:
COMPOUND	TGT	Efficacy, %
CC(=O)O[C@H]1C[C@@H](C(=O)N2CCCC2C(=O)OCc2ccccc2)[C@]2(C)CC[C@H]3C(=O)O[C@H](c4ccoc4)C[C@]3(C)[C@H]2C1=O (stereo partly specified)	Kappa-type opioid receptor (Homo sapiens, UniProt P41145)	100
C#CCCCOC(=O)[C@@H]1C[C@H](OC(C)=O)C(=O)[C@H]2[C@@]1(C)CC[C@H]1C(=O)O[C@H](c3ccoc3)C[C@]21C	Kappa-type opioid receptor (Homo sapiens, UniProt P41145)	104

Give recorded Efficacy. CC(=O)O[C@H]1C[C@@H](C(=O)NC(C)C(=O)OCc2ccccc2)[C@]2(C)CC[C@H]3C(=O)O[C@H](c4ccoc4)C[C@]3(C)[C@H]2C1=O (stereo partly specified) 95

Tell us which Efficacy value is on record for CCOC(=O)[C@@H]1C[C@H](OC(C)=O)C(=O)[C@H]2[C@@]1(C)CC[C@H]1C(=O)O[C@H](c3ccoc3)C[C@]21C 110

Name the recorded Efficacy of the compound listed here: COCOC(=O)[C@@H]1C[C@H](OC(C)=O)C(=O)[C@@H]2[C@@]3(C)C[C@@H](c4ccoc4)OC(=O)[C@H]3CC[C@]21C 102

Please indicate Efficacy recorded for COCOC(=O)[C@@H]1C[C@H](OC(C)=O)C(=O)[C@H]2[C@@]1(C)CC[C@H]1C(=O)O[C@H](c3ccoc3)C[C@]21C 105
